experiment_description: Solubility measurement in various solvents at 23 ± 1° C. (Procedure 1)
Assay type: physicochemical
applied_conditions: organic solvent or mixture, thermodynamic from solid; at 23° C. in heptane, hexane, toluene, MTBE, isobutyl acetate, IPAc, water, acetone water (1:4), MIBK, EtOAc, IPA, and acetone water (1:2); read-out: Solubility (insoluble)
value_kind: solubility

(Q) Which measured solubility value corresponds to C=CC(=O)NCc1cc2c(cn1)CN(c1c(F)c(OC)cc(OC)c1F)C(=O)C21CC1 [Compound 1 Form I] ?
(A) < 1000 µg/mL

---

experiment_description: Solubility measurement in various solvents at 50 ± 1° C. (Procedure 2)
Type: physicochemical
applied_conditions: Chloroform, 50 °C, organic solvent or mixture, thermodynamic from solid, Chloroform; read-out: Solubility at 50 ± 1° C.
value_kind: solubility

(Q) Which measured solubility value corresponds to C=CC(=O)NCc1cc2c(cn1)CN(c1c(F)c(OC)cc(OC)c1F)C(=O)C21CC1 [Form II] ?
(A) > 50 mg/mL

---

experiment_description: Solubility measurement in various solvents at 50 ± 1° C. (Procedure 2)
Type: physicochemical
applied_conditions: MEK, 50 °C, organic solvent or mixture, thermodynamic from solid, MEK; read-out: Solubility at 50 ± 1° C.
value_kind: solubility

(Q) Which measured solubility value corresponds to C=CC(=O)NCc1cc2c(cn1)CN(c1c(F)c(OC)cc(OC)c1F)C(=O)C21CC1 [Compound 1 Form I] ?
(A) 3.73 mg/mL

---

experiment_description: Solubility measurement in various solvents at 23 ± 1° C. (Procedure 1)
Format: physicochemical
applied_conditions: isobutyl acetate, 23 °C, organic solvent or mixture, thermodynamic from solid, Isobutyl acetate; read-out: Solubility at 23 ± 1° C.
value_kind: solubility (µg/mL)
Provide the reading as a plain figure in µg/mL.

(Q) Which measured solubility value corresponds to C=CC(=O)NCc1cc2c(cn1)CN(c1c(F)c(OC)cc(OC)c1F)C(=O)C21CC1 [Compound 1 Form I] ?
(A) 280

---

experiment_description: Solubility measurement in various solvents at 50 ± 1° C. (Procedure 2)
Assay type: physicochemical
applied_conditions: 1,4-dioxane, 50 °C, organic solvent or mixture, thermodynamic from solid, 1,4-Dioxane; read-out: Solubility at 50 ± 1° C.
value_kind: solubility
Please answer using the number first and the unit second.

(Q) Which measured solubility value corresponds to C=CC(=O)NCc1cc2c(cn1)CN(c1c(F)c(OC)cc(OC)c1F)C(=O)C21CC1 [Form III] ?
(A) 37.8 mg/mL

---

experiment_description: Solubility measurement in various solvents at 23 ± 1° C. (Procedure 1)
Format: physicochemical
applied_conditions: MEK, 23 °C, organic solvent or mixture, thermodynamic from solid, MEK; read-out: Solubility at 23 ± 1° C.
Protocol: The solubility of the Compound 1 Form I was measured according to Procedure 1 for solubility in 23±1° C. (Table 13) and Procedure 2 for 50±1° C.
value_kind: solubility
Please answer using the number first and the unit second.

(Q) Which measured solubility value corresponds to C=CC(=O)NCc1cc2c(cn1)CN(c1c(F)c(OC)cc(OC)c1F)C(=O)C21CC1 [Compound 1 Form I] ?
(A) 3580 µg/mL

---

experiment_description: Solubility measurement in various solvents at 23 ± 1° C. (Procedure 1)
Assay type: physicochemical
applied_conditions: acetone, 23 °C, organic solvent or mixture, thermodynamic from solid, Acetone; read-out: Solubility at 23 ± 1° C.
value_kind: solubility (µg/mL)
Provide the reading as a plain figure in µg/mL.

(Q) Which measured solubility value corresponds to C=CC(=O)NCc1cc2c(cn1)CN(c1c(F)c(OC)cc(OC)c1F)C(=O)C21CC1 [Compound 1 Form I] ?
(A) 5100
